biological target: Pf-HDAC1 (Plasmodium falciparum, UniProt Q7K6A1)
Sequence (Q7K6A1 1-449): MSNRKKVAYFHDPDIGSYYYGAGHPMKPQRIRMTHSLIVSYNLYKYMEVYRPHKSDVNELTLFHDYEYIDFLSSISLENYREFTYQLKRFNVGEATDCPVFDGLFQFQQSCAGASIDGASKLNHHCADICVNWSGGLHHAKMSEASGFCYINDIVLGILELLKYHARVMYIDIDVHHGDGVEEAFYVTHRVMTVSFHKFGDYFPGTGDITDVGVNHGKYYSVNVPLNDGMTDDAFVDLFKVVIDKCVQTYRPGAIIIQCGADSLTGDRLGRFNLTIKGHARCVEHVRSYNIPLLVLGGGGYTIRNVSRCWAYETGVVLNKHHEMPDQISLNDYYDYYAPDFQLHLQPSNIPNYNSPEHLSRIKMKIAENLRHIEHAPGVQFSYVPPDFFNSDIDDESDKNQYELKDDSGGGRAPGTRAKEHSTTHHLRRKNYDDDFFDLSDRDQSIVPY

{"columns": ["STRUCTURE SMILES STRING", "IC50 [nM]"],
 "data": [
  ["O=C(NO)c1ccc(Cn2cc(-c3ccc(CN4CCCC4)cc3)nn2)cc1", 31]
]}

====

molecular target: CYP 2D6 (Homo sapiens, UniProt P10635); assay: Cyp inhibition CYP 2D6; format: in vitro ADME
Sequence (P10635 whole entry, species assumed): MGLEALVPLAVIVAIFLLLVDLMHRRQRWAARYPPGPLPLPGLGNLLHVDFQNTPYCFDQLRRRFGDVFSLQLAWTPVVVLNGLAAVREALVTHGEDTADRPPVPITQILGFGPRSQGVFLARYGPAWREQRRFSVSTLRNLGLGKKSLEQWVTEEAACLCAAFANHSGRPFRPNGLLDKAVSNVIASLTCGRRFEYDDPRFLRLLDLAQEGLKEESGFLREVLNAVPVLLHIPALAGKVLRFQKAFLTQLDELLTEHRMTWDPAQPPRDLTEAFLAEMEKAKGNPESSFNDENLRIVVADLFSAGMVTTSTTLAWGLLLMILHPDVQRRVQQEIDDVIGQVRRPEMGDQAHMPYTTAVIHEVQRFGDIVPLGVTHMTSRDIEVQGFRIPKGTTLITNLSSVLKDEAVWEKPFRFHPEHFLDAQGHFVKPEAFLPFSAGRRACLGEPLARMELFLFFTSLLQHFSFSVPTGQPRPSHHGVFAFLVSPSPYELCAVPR
pIC50: −log10 of the molar value.

{"columns": ["STRUCTURE SMILES STRING", "pIC50"],
 "data": [
  ["O=C(NO)c1ccc(Cn2cc(-c3ccc(CN4CCCC4)cc3)nn2)cc1", 4.55]
]}
